system: HT29 colon; assay: NCI-60 one-dose screen, 48 h (100 = growth as untreated, 0 = no growth, -100 = all killed); conditions: 10 µM unless noted
Compounds without any hit were thinned out: in the full panel of roughly 83,000, 20% have a hit. The source made the active and inactive calls. The calls were made as follows: active = growth percent below 10; inactive = the rest.
experimental.readout: growth

Please give measured growth of the following entry: Cc1ccc(C)c(CN(C)C)c1O
115% (inactive)

Answer with the recorded growth of NC(=O)c1cc2c3ccccc3ccn2c1-c1ccccc1 only.
7.35% (active)

In one line, give reported growth of the entry CCOC(=O)Nc1nccs1 .
100% (inactive)

Consider the compound COCC(N)=O . State its measured growth.
102% (inactive)

Assign growth to the following record: O=C(O)c1cc(I)ccc1O
104% (inactive)

Quick one: give measured growth for OC(CBr)CCBr (centres undefined)
105% (inactive)

Quickly give me recorded growth for CCC(=O)Oc1c(C)cc(O)c2ccccc12
106% (inactive)

Give growth for the following compound: COc1cc(-c2ccc(NC(=O)CC(C)=O)c(OC)c2)ccc1NC(=O)CC(C)=O
107% (inactive)

Quote growth reported for CCCCOC(=O)c1ccccc1O please.
111% (inactive)

Fill in growth for record CC(=O)Nc1ccc(C(=O)c2ccc(S(=O)(=O)Nc3ccccc3)cc2)cc1
96.7% (inactive)

Query growth for CS(=O)(=O)c1ccc(/C=C\C(=O)O)cc1
104% (inactive)

Answer with reported growth of COc1nc(Nc2cccc(C(F)(F)F)c2)nc(OC)n1
96.1% (inactive)

Give growth for the following compound: Cc1cc2c3ccc(C)[n+](C)c3ccc2n1C
39.9% (inactive)

State, in one line, measured growth of CCC12OC(COc3ccccc3)CN1CCN2c1ccccc1 (centres undefined)
111% [100 µM] (inactive)

Tell us which growth value is on record for CCCC(=O)c1cccs1
98% (inactive)

Dear colleague, please send me the reported growth for CSc1cnc2ccccc2n1 when you can.
83.2% (inactive)

Quickly give me recorded growth for CC(C)c1ccccc1NC(=O)N1CCC(C(C)C)CC1
107% (inactive)

Item COC1OC(COC(C)=O)C(OC(C)=O)C(OC(C)=O)C1OC(C)=O (centres undefined) : provide growth
95.5% (inactive)

Using known records, supply growth for C=CC1=NC(C)(C)CC(C)O1 (centres undefined)
106% (inactive)

Note growth for the compound shown: CCCCCCCCCCCCCCCCCCSC(=N)N
28.4% (inactive)

Identify the reported growth for the following entry. CCOC(=O)/C(O)=C(\C=N\C(=S)Nc1ccc(Cl)c(Cl)c1)C(=O)OCC
92.8% (inactive)

Give reported growth value for C#CCSc1nnnn1-c1ccccc1
96% (inactive)

Give the reported growth for this compound. Cc1cccnc1NC1OC(=O)c2ccccc21 (centres undefined)
104% (inactive)

Fill in reported growth for this entry: O=S1(=O)c2ccccc2Oc2ccccc21
99.6% (inactive)

Give growth for CC(C)(N)CO[C@H]1C[C@H]2CC[C@@]1(C)C2(C)C
101% (inactive)

Write down growth measured for item Clc1ccc(/C=C/c2ccccn2)cc1
111% (inactive)

In one line, give reported growth of the entry OCC1CCC(O)C(CO)N1 (centres undefined) .
108% (inactive)

Write down growth measured for item CCOC(=O)C(C#N)=C1CCN(C)CC1
113% (inactive)

For the compound CCCc1cccc(CCC)c1NC(=O)Nc1cc(Cl)cc(Cl)c1 , give its measured growth value.
107% (inactive)

###

Exercise: for every item that follows, state its recorded growth.
system: NCI-H322M lung; assay: NCI-60 one-dose screen, 48 h (100 = growth as untreated, 0 = no growth, -100 = all killed); conditions: 10 µM unless noted
This is part of a sample that, as a whole, favours compounds with a hit. Of some 83,000 tested, about 20% had one in any assay.
Give the quantity in %, number only.

Return the recorded growth value; entry: CC(=O)NC(CCC(=O)c1ccccc1)C(=O)O (stereo not drawn)
98.5

Tell me growth reported for Nc1ccn(C2OC(CO)C(O)C2F)c(=O)n1 (stereo not drawn)
107

Tell me measured growth for CC(=O)OCC1OC(n2cnc3c(=S)nc(N)[nH]c32)C(OC(C)=O)C1OC(C)=O (stereo not drawn) please.
77.3

Please report growth for the following compound: CC(C)(CC(=O)O)CC(=O)O
96.7

Please supply the value of reported growth for the item COc1ccc(C(=O)/C(=N/Nc2ccccc2)c2ccc(OC)cc2)cc1
103

Specify measured growth for O=C(NCc1ccccc1)/C(=C/c1ccccc1)NC(=O)c1ccccc1 .
104

Give recorded growth. CCOC(=O)c1ccc(C(C)(C)C)cc1
101

Specify growth for O=S(=O)(OCCOS(=O)(=O)c1ccccc1)c1ccccc1 and stop.
97.6

Provide one value: measured growth of CC(=O)C1C(=O)C(=O)N(c2cccc([N+](=O)[O-])c2)C1=O (stereo not drawn)
114

Answer with reported growth of CCC1CCC(C)NC1 (stereo not drawn)
108

Identify measured growth corresponding to CN(C)Cc1ccccn1
96.3

Report measured growth; entry is CCCCN(C(=O)CC)c1ccccc1
97.9

Consider the compound Cc1ccc2[nH]c3ccccc3c2c1 . State its measured growth.
99.6

###

system: HT29 colon; assay: NCI-60 one-dose screen, 48 h (100 = growth as untreated, 0 = no growth, -100 = all killed); conditions: 10 µM unless noted
This is part of a sample that, as a whole, favours compounds with a hit. Of some 83,000 tested, about 20% had one in any assay.
For each entry below, report its growth value.
Answer in %, number only, no unit symbol.

Identify measured growth associated with COC(=O)C1=C(C)C(=O)CC1
98.3

Supply recorded growth for OCCNc1ccccc1 here.
104

Output growth of CN(C)c1ccc(/C=C/C(=O)c2ccc(NC(N)=O)cc2)cc1
95.2

# return recorded growth for entry COc1cc(OC)c(NC(=O)C(Sc2nc(C)cc(C)c2C#N)c2ccccc2)cc1Cl (centres undefined)
107

Return reported growth. Input compound: CC1(C)C2CCC1(C)C1(C2)OCCS1 (centres undefined)
110

Tell me measured growth for NNC(=O)c1ccccc1N please.
106

Dear colleague, please send me the reported growth for CCOC(=O)C(CCC#N)(CCC#N)C(=O)OCC when you can.
111

Please give measured growth of the following entry: COc1ccc(C(=O)/C(=N/Nc2ccccc2)c2ccc(OC)cc2)cc1
80.5

Query growth for CCOP(=O)(OCC)/C(=C\N1C(=O)CC(=O)NC1=S)C(=O)OC
111

Look up growth of CCOC(=O)CSCCC#N and report it.
97.9

Provide growth value for the following compound: COc1ccc(C2CCCCC2=O)cc1 (centres undefined)
108

// Input: Cc1ccc(NC(=O)c2ccccc2Cl)cc1 . Output its growth only.
107

Given Cc1ccc(/C=N/NC(N)=S)s1 , respond with its growth.
110

For the compound ClCC(Cl)[C@@H]1CC2C=CC1C2 (some centres undefined) , report growth.
107

###

system: CAKI-1 renal; experiment: NCI-60 one-dose screen, 48 h; conditions: 10 µM unless noted
Compounds without any hit were thinned out: in the full panel of roughly 83,000, 20% have a hit. Calls of active or inactive are those of the source. How the source made its calls: active means growth percent below 10; inactive means the rest.
Hi! Could you answer with just one of these? active, inactive

Please state the recorded outcome for this compound: Cc1ccc(N2C(=O)c3cccc4c(N)c(S(=O)(=O)O)cc(c34)C2=O)cc1
inactive

Short answer needed: outcome of this test for CC1(C)C2CCC1(C)C1(C2)OCCS1 (configuration not stated) ?
inactive

Test call, this compound: O=C(O)Cc1ccccn1
inactive

For Oc1cccnc1CN1CCCC1 , what call appears in the results of this test?
inactive

So what was the verdict on CCOC(=O)C1(N)CCCCC1 in this test?
inactive

Per the assay record, what outcome was assigned to CN(C)c1ccc(O)c2c1CC1CC3C(N(C)C)C(=O)C(C(N)=O)=C(O)C3(O)C(=O)C1=C2O (configuration not stated) ?
active

Kindly provide the recorded test outcome for the following compound: COc1ccc2c(ccc[n+]2C)c1
inactive

What did this assay record as the result for COc1ccc(C(=O)C(=O)c2ccccc2)cc1 ?
inactive

Please indicate how the test categorized CCOc1ccccc1NC(=O)CCl .
inactive

Given O=C(CCCl)OCCOc1ccccc1 , state the outcome it received in this test.
inactive

I would be grateful if you could indicate the recorded call for CC1(C)CCC(C)(C)NC(=S)N1 .
inactive

Just curious, what result did CCC(=O)Oc1ccc2ccccc2c1 get here?
inactive

Please share the test call associated with CC(=O)c1cccs1 .
inactive

Hello, I am checking results. What call was entered for Clc1ccc(-c2noc(/C=C\c3ccccc3)n2)cc1 ?
inactive

What classification did COC1OC(C(COC(C)=O)OC(C)=O)C(OC(C)=O)C(OC(C)=O)C1OC(C)=O (configuration not stated) end up with in this test?
inactive

Hi, do you know how NC(=S)N/N=C/c1ccc(OC(=O)COc2ccccc2)cn1 came out in this test?
active

Recorded test outcome, item Nc1ncnc(Nc2ccc(C(F)(F)F)cc2)n1
inactive

This collection of values is drawn from PubChem BioAssay (NCI).
